Experiment: A CellTox Green Cytotoxicity Assay to monitor cytotoxicity in HEK293 cells - 32 hour (AID 1224881); further: nearly all actives have a fitted effect of over 40% in size
Conditions: CellTox Green fluorescence; series mostly up to 76.8 µM
Source text: National Center for Advancing Translational Sciences [NCATS] NIH Chemical Genomics Center [NCGC] U.S. Environmental Protection Agency [EPA] National Institutes of Environmental Health Sciences [NIEHS] National Toxicology Program [NTP] Cell-based models are critical for drug discovery. […] Viable cells produce no appreciable increases in fluorescence. Therefore, the fluorescence signal produced by the binding interaction with dead cell DNA is proportional to cytotoxicity. […]
Records with an inconclusive call do not appear. Calls of active or inactive are those of the source. The call rests on the fitted dose curve; in most records, active means well fitted activation curve with a large enough effect in the repeat runs; inconclusive means weak or mixed curves; inactive means flat fitted curve, though single readings scatter.
Pick one: true (1) (active), false (0) (inactive)

Qu. Write down the call the test reported for this compound. Item: O=[N+]([O-])c1c2ccccc2cc2ccccc12
Ans. true (1)

Qu. Write down the call the test reported for this compound. Item: CCCCCCCCCCCCCCCC[n+]1ccccc1
Ans. true (1)

Qu. Write down the call the test reported for this compound. Item: O=c1[nH]c2ccccc2n1CCCN1CCC(n2c(=O)[nH]c3cc(Cl)ccc32)CC1
Ans. false (0)

Qu. Write down the call the test reported for this compound. Item: BrC(Br)Br
Ans. false (0)

Qu. Write down the call the test reported for this compound. Item: Cc1c(Cl)c(=O)oc2cc(OP(=O)(OCCCl)OCCCl)ccc12
Ans. false (0)

Qu. Write down the call the test reported for this compound. Item: N#Cc1ccccc1Cl
Ans. false (0)

Qu. Write down the call the test reported for this compound. Item: CN(C)S(=O)(=O)N(SC(F)(Cl)Cl)c1ccccc1
Ans. true (1)

Qu. Write down the call the test reported for this compound. Item: CC(O)C#N (stereo not drawn)
Ans. false (0)

Qu. Write down the call the test reported for this compound. Item: CC(C)(C)c1cc([N+](=O)[O-])cc(C(C)(C)C)c1O
Ans. false (0)

Qu. Write down the call the test reported for this compound. Item: Cc1ccc(CCl)cc1
Ans. false (0)

Qu. Write down the call the test reported for this compound. Item: CC(=O)c1cc(C(C)(C)C)cc2c1CCC2(C)C
Ans. true (1)

Qu. Write down the call the test reported for this compound. Item: Nc1ccccc1C(=O)Oc1ccc2ccccc2c1
Ans. false (0)

Qu. Write down the call the test reported for this compound. Item: O=C(CCCN1CCC2(CC1)C(=O)NCN2c1ccccc1)c1ccc(F)cc1
Ans. false (0)
